# maps each entry to its GSK3B pIC50
Assay Target: GSK3β (h) (Homo sapiens)
Sequence (P49841 whole entry): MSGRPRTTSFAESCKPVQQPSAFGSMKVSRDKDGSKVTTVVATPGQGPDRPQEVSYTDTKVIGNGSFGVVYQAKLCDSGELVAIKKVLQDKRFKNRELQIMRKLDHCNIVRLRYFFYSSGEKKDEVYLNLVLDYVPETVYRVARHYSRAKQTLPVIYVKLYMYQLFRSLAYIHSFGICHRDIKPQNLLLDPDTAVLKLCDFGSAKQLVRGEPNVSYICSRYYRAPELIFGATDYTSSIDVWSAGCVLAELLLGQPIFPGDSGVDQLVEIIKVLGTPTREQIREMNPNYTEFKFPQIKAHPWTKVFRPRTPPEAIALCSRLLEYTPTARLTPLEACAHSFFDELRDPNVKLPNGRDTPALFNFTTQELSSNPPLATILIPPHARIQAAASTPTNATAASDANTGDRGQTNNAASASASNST
Measurement Protocol: GSK-3β human kinase assay (SPA)
Format: biochemical
// print number alone

These solved cases illustrate the format of a correct answer.
INSERT INTO assay_data (compound, outcome_measure, numeric_readout) VALUES
  ('COc1ccc2cc1OCCCCCCC(=O)N(C)CCNc1ncnc3c1C(=CN2)C(=O)N3 (mixture of isomers) [Compound 76]', 'GSK3B pIC50', 6.54),
  ('COc1ccc2cc1CN(C)CCCCC(=O)N(C)CCCN(C)c1ncnc3c1C(=CN2)C(=O)N3 (mixture of isomers) [Compound 87]', 'GSK3B pIC50', 6.17),
  ('CN1CCCNc2ncnc3c2C(=CNc2ccc(Cl)c(c2)OCCCC1=O)C(=O)N3 (mixture of isomers) [Compound 63]', 'GSK3B pIC50', 7.68),
  ('CN1CCCNc2ncnc3c2C(=CNc2ccc(N4CCOCC4)c(c2)OCCCCCC1=O)C(=O)N3 (mixture of isomers) [Compound 120]', 'GSK3B pIC50', 6.73),
  ('CN1CCCN(C)c2ncnc3c2C(=CNc2cccc(c2)OCCCC1=O)C(=O)N3 (mixture of isomers) [Compound 88]', 'GSK3B pIC50', 6.26),
  ('CN1CCCCCC(=O)N(C)CCCNc2ncnc3c2C(=CNc2ccc(N4CCOCC4)c(c2)C1)C(=O)N3 (mixture of isomers) [Compound 139]', 'GSK3B pIC50', 5.87),
  ('CN1CCNc2ncnc3c2C(=CNc2cccc(c2)OCCCC1=O)C(=O)N3 (mixture of isomers) [Compound 58]', 'GSK3B pIC50', 6.88);

Form field: GSK3B pIC50 recorded for CN1CCN(c2ccc3cc2OCCCC(=O)N(C)CCNc2ncnc4c2C(=CN3)C(=O)N4)CC1 (mixture of isomers) [Compound 137] with GSK3β (h) (Homo sapiens) (enter value)
6.405

----------
# maps each entry to its IC50
Assay Target: GSK3β (h) (Homo sapiens)
Measurement Protocol: GSK-3β human kinase assay (SPA)
Assay type: biochemical
Condition Notes: read-out: GSK3B pIC50 (converted)
Return type: number; implicit unit nM.

INSERT INTO assay_data (molecule, outcome_measure, unit_of_measurement, numeric_readout) VALUES
  ('CN1CCCNc2ncnc3c2/C(=C/Nc2ccc(NC(=O)NC4CCCCC4)c(c2)OCCCC1=O)C(=O)N3 [Compound 107]', 'IC50', 'nM', 2000),
  ('C[C@@H]1CN(C)CCCNc2ncnc3c2/C(=C/Nc2cccc(c2)OCC(=O)N1)C(=O)N3 [Compound 99]', 'IC50', 'nM', 2040);

Requested read-out: IC50. Entry: CN1CCCC(=O)N(C)CCCN(C)c2ncnc3c2/C(=C/Nc2ccc(Cl)c(c2)C1)C(=O)N3 [Compound 90]
617

----------
Tested on: PC-3
Measurement Protocol: Cellular proliferation assay (Alamar blue), PC-3
Assay type: cell-based
Condition Notes: Homo sapiens, PC-3, 72 h, PC-3 cells, 72 hours with compound, 10% FCS, read-out: pIC50 PC-3 (converted)
# maps each entry to its IC50

These solved cases illustrate the format of a correct answer.
INSERT INTO results (compound, result) VALUES
  ('COc1ccc2cc1OCCCC(=O)N(C)CCCNc1ncnc3c1/C(=C/N2)C(=O)N3 [Compound 9]', '0.457 µM'),
  ('CN1CCCN(C)c2ncnc3c2/C(=C/Nc2cccc(c2)OCCCCCCC1=O)C(=O)N3 [Compound 53]', '> 10 µM'),
  ('COc1ccc2cc1CN(C)CC(=O)N(C)CCCCNc1ncnc3c1/C(=C/N2)C(=O)N3 [Compound 153]', '> 10 µM'),
  ('CN1CCCNc2ncnc3c2/C(=C/Nc2cc(cc(C(F)(F)F)c2)OCCCCC1=O)C(=O)N3 [Compound 130]', '8.13 µM'),
  ('CN1CCN(c2ccc3cc2CN(C)CCCC(=O)N(C)CCCNc2ncnc4c2/C(=C/N3)C(=O)N4)CC1 [Compound 140]', '6.17 µM'),
  ('CN1CCCNc2ncnc3c2/C(=C/Nc2cccc(c2)OCC(=O)N[C@H](Cc2ccccc2)C1)C(=O)N3 [Compound 176]', '> 10 µM'),
  ('COc1cc2cc(c1OC)CN(C)CCCC(=O)N(C)CCNc1ncnc3c1/C(=C/N2)C(=O)N3 [Compound 118]', '> 10 µM'),
  ('COc1cc2cc(c1OC)CN(C)CC(=O)N(C)CCNc1ncnc3c1/C(=C/N2)C(=O)N3 [Compound 123]', '> 10 µM'),
  ('CN1CCNc2ncnc3c2/C(=C/Nc2cccc(c2)OCCCCC1=O)C(=O)N3 [Compound 42]', '> 10 µM'),
  ('CN1CCNc2ncnc3c2/C(=C/Nc2ccc(Cl)c(c2)OCC(=O)N2CCC[C@@H]2C1)C(=O)N3 [Compound 192]', '> 10 µM');

Requested read-out: IC50. Entry: CN1CCN(c2ccc3cc2CN(C)CCCCCC(=O)N(C)CCNc2ncnc4c2/C(=C/N3)C(=O)N4)CC1 [Compound 126]
> 10 µM

Here is the next compound: CN1CCNC(=O)COc2cccc(c2)N/C=C2\C(=O)Nc3ncnc(c32)NCC1 [Compound 167]
> 10 µM

Here is the next compound: O=C1Nc2ncnc3c2C1=CNc1ccc(c(Cl)c1)OCCCCCC(=O)N1CCN3CC1 (mixture of isomers) [Compound 14]
> 10 µM

Here is the next compound: COc1ccc2cc1OCCCCCC(=O)N1CCN(CC1)c1ncnc3c1/C(=C/N2)C(=O)N3 [Compound 18]
2.34 µM

Here is the next compound: COc1ccc2cc1OCCCC(=O)N(C)CCCN(C)c1ncnc3c1/C(=C/N2)C(=O)N3 [Compound 31]
1.66 µM

Here is the next compound: CN1CCN(c2ccc3cc2CN(C)CCCCC(=O)N(C)CCCNc2ncnc4c2/C(=C/N3)C(=O)N4)CC1 [Compound 122]
7.94 µM

Here is the next compound: CN1CCCNc2ncnc3c2/C(=C/Nc2cc(cc(C(F)(F)F)c2)OCCCC1=O)C(=O)N3 [Compound 113]
> 10 µM

Here is the next compound: COc1ccc2cc1CN(C)CCCCCC(=O)NCCN(C)c1ncnc3c1/C(=C/N2)C(=O)N3 [Compound 48]
> 10 µM

Here is the next compound: COc1ccc2cc1OCCCCCCC(=O)NCCN(C)c1ncnc3c1/C(=C/N2)C(=O)N3 [Compound 47]
> 10 µM

Here is the next compound: CN1CCNc2ncnc3c2/C(=C/Nc2cccc(c2)OCC(=O)N(C)CC1)C(=O)N3 [Compound 148]
> 10 µM

Here is the next compound: CN1CCCNc2ncnc3c2/C(=C/Nc2ccc(NC(=O)Nc4ccccc4)c(c2)OCCCC1=O)C(=O)N3 [Compound 158]
1.32 µM

Here is the next compound: COc1ccc2cc1OCC(=O)NCCN1CCN(CC1)c1ncnc3c1/C(=C/N2)C(=O)N3 [Compound 207]
> 10 µM

Here is the next compound: CC(C)N1CCCCCC(=O)N2CCN(CC2)c2ncnc3c2/C(=C/Nc2ccc(F)c(c2)C1)C(=O)N3 [Compound 28]
> 10 µM

Here is the next compound: CN1CCNc2ncnc3c2/C(=C/Nc2cccc(c2)OCC(=O)N2CCC[C@@H]2C1)C(=O)N3 [Compound 168]
> 10 µM

Here is the next compound: COc1cc2cc(c1OC)CN(C)CC(=O)N(C)CCN(C)CCNc1ncnc3c1/C(=C/N2)C(=O)N3 [Compound 155]
> 10 µM

Here is the next compound: COc1cc2cc(c1OC)CN(C)CCCCC(=O)N(C)CCNc1ncnc3c1/C(=C/N2)C(=O)N3 [Compound 119]
> 10 µM

Here is the next compound: CN1CCCCCC(=O)N2CCN(CC2)c2ncnc3c2/C(=C/Nc2cccc(c2)C1)C(=O)N3 [Compound 24]
> 10 µM

Here is the next compound: COc1ccc2cc1OCCCCCC(=O)N(C)CCNc1ncnc3c1/C(=C/N2)C(=O)N3 [Compound 37]
9.55 µM

Here is the next compound: CN1CCNc2ncnc3c2/C(=C/Nc2cccc(c2)CN(C)CC(=O)N(C)CC1)C(=O)N3 [Compound 149]
> 10 µM

Here is the next compound: CN1CCCNc2ncnc3c2/C(=C/Nc2ccc(Cl)c(c2)OCCCCC1=O)C(=O)N3 [Compound 61]
> 10 µM

Here is the next compound: CN1CCCNc2ncnc3c2/C(=C/Nc2ccc(NC(=O)c4ccccc4)c(c2)OCCCC1=O)C(=O)N3 [Compound 108]
> 10 µM
